Target: IL16_1, Q14005
Sequence (Q14005 210-306): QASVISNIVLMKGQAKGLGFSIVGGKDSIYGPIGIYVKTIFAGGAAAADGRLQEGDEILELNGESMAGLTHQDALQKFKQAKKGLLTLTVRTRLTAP
Assay: holdup assay
Parameters: key: below the threshold = too weak to quantify, mostly under pKd 3.1 to 4
Conditions: plain residues with an end cap or a label only (N-terminal biotin on a linker: ado-ado)
MEASUREMENT TYPE: pKd

Below, each entry is followed by its recorded pKd result.
# BINDER, VAL
data = [
    ("VKPQVSESKL [ACOT8, O14734]", "below the threshold"),
    ("QSARLWETSI [ADAM22, Q9P0K1]", 3.68),
    ("QKNRKAQEDL [CES3, Q6UWW8]", "below the threshold"),
    ("RHGSCVETSL [TMEM151B, Q8IW70]", 3.62),
    ("SAAKVLTSMC [GHRHR, Q02643]", "below the threshold"),
]

pKd in this record for QSLNRMEYIV [JAG1, P78504] : 3.91

pKd in this record for LPAHHNATRL [SLC34A1, Q06495;Q06495-1] : below the threshold

pKd in this record for DDPSTAETVL [ABCA7, Q8IZY2] : below the threshold

pKd in this record for LSEFKAMDSI [CTNNA1, P35221] : below the threshold

pKd in this record for QMNQTLPVQV [EPHB3, P54753] : below the threshold
